Cited source: ChEMBL document CHEMBL3856281

- MEASURED_ON: Renin (Homo sapiens)
- PROTOCOL_NOTES: Inhibition of human recombinant renin expressed in FreeStyle 293 expression system at 100 uM using FITC-epsilonAcp-Asp-Arg-Val-Tyr-Ile-His-Pro-Phe-His-Leu-Val-Ile-His-Asn-Arg-NH2 as substrate preincubated for 15 mins followed by substrate addition measured after 30 mins by microchip type capillary electrophoresis method relative to control
QUANTITY: inhibition (%)

Here is how some molecules turned out for inhibition.
[[record]]
molecule = "Cc1ccc(C(=O)N2CCCCCC2)c(NCc2ccco2)n1"
reported_measurement = 70

[[record]]
molecule = "Clc1cncc(NCc2ccco2)n1"
reported_measurement = 65


P: CCN(CC)C(=O)c1ccc(C)nc1NCc1ccco1
Q: CCC1CCCCN1C(=O)c1ccc(C)nc1NCc1ccco1 (stereo not given)
Higher inhibition: P or Q ? Let me know the label of the one you choose. Q
(Q: 86%, P: 31%)

====

- PROTOCOL_NOTES: Cytotoxicity against human HepG2 cells assessed as ATP contents at 30 uM after 1 day by ATPLiteTM-M assay relative to control
- Type: toxicity, cell-based
- APPLIED_CONDITIONS: read-out: Activity
Readings of viability at 24 h, 30 µM for the listed compounds
Write the value in % as a bare number.

[[record]]
mol = "Cc1ccc(C(=O)N2CCCCCC2)c(NCc2ccco2)n1"
quantity = "viability at 24 h, 30 µM"
measurement_unit = "%"
reported_measurement = 91.6


Give the reported viability at 24 h, 30 µM for this compound. c1coc(CNc2ncnc3sc4c(c23)CCCC4)c1 31.4

====

- MEASURED_ON: hERG (KCNH2) (Homo sapiens, UniProt Q12809)
- Sequence (Q12809 whole entry): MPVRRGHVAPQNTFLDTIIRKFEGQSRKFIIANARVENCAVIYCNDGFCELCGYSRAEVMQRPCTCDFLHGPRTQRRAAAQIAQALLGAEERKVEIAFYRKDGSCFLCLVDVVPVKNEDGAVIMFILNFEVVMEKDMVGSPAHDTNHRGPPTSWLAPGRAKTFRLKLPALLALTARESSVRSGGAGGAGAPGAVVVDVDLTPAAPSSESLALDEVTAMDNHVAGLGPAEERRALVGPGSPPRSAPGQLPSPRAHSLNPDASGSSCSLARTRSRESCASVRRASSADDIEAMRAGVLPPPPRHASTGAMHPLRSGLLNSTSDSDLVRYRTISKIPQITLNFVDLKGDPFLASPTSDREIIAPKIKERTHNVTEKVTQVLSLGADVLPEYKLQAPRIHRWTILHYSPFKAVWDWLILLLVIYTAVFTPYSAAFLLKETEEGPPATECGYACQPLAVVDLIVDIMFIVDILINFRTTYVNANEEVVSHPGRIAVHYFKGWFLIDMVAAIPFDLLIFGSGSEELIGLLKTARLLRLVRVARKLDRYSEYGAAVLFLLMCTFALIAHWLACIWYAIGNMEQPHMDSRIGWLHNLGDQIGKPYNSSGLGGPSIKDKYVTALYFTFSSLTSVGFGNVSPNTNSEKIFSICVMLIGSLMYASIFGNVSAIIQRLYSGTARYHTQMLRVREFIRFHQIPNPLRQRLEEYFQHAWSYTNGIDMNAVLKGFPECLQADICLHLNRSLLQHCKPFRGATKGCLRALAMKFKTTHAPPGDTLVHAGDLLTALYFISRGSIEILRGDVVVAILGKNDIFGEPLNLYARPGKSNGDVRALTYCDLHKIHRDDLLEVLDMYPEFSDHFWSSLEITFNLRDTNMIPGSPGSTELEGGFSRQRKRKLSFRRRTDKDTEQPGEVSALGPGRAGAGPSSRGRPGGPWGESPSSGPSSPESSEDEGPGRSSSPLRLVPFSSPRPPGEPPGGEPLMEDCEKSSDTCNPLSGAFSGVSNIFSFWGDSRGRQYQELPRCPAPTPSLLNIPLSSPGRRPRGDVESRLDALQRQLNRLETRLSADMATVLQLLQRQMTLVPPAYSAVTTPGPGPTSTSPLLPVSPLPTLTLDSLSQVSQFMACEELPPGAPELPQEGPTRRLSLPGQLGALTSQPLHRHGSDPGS
- PROTOCOL_NOTES: Inhibition of human ERG expressed in CHO cells assessed as suppression of peak tail currents incubated for 5 mins by patch clamp method
- Assay type: cell-based
- APPLIED_CONDITIONS: CHO cells that express human ERG
QUANTITY: inhibition at 5 min (%)
Write the value in % as a bare number.

[[record]]
mol = "c1coc(CNc2ncnc3sc4c(c23)CCCC4)c1"
measured_on = "hERG (KCNH2) (Homo sapiens, UniProt Q12809)"
reported_measurement = 62.8


Give the reported inhibition at 5 min for this compound. Cc1ccc(C(=O)N2CCCCCC2)c(NCc2ccco2)n1 7.5
